Biological target: T1, human PD-L1 recombinant protein (human, UniProt Q9NZQ7 19-238)
T1 construct: also called recombinant PD-L1 protein; recombinant PD-L1
T1 sequence (Q9NZQ7 19-238 limits assumed): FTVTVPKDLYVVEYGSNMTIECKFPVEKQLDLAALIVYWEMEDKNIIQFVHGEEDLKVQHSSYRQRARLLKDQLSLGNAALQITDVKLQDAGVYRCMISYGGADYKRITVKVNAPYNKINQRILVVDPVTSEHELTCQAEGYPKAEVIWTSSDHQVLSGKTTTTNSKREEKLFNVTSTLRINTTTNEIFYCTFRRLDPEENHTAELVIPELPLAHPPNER
Assay: BLI (method per paragraph 89); target not given, taken as human PD-L1 recombinant protein
Quick reference: Kd of the listed items.
Could you give me the number in nM? Just the number is fine.

Some entries whose results are on file:
• hzF2-m3 (VHH, The parent hzF2 is a VHH-human IgG1 Fc fusion; also called humanized single variable domain antibody hzF2-m3) VHH: EVQLVESGGGLVQPGGSLRLSCAASRDSSSGASCMGWFRQAPGKGLEGVAIIFNAGERTDYGDSVKGRFTISRDNAKNTLYLQMNSLRAEDTAVYYCATVWCGSWVARSWGQGTLVTVSS = 7.8
• hzF2-m13 (VHH, Framework 2 is KEREG; also called humanized single variable domain antibody hzF2-m13) VHH: EVQLVESGGGLVQPGGSLRLSCAASRDSDDGASCMGWFRQAPGKEREGVAIIFNAGERTDYGDSVKGRFTISRDNAKNTLYLQMNSLRAEDTAVYYCATVFCGSFVARSWGQGTLVTVSS = 4.26
• hzF2-m1 (VHH, The parent hzF2 is a VHH-human IgG1 Fc fusion; also called humanized single variable domain antibody hzF2-m1) VHH: EVQLVESGGGLVQPGGSLRLSCAASRDSDDGASSMGWFRQAPGKGLEGVAIIFNAGERTDYGDSVKGRFTISRDNAKNTLYLQMNSLRAEDTAVYYCATVWSGSWVARSWGQGTLVTVSS = 2.8

**Query** Item hzF2-m15 (VHH, Framework 2 is KEREG; also called humanized single variable domain antibody hzF2-m15) VHH: EVQLVESGGGLVQPGGSLRLSCAASRDSDEGASCMGWFRQAPGKEREGVAIIFNVGERTDYGDSVKGRFTISRDNAKNTLYLQMNSLRAEDTAVYYCATVFCGSYVARSWGQGTLVTVSS has what recorded Kd?
**Result** 4.75

**Query** Same question, hzF2-m16 (VHH, Framework 2 is KEREG; also called humanized single variable domain antibody hzF2-m16) VHH: EVQLVESGGGLVQPGGSLRLSCAASRDSDEGASCMGWFRQAPGKEREGVAIIFNVGERTDYGDSVKGRFTISRDNAKNTLYLQMNSLRAEDTAVYYCATVFCGSFVARSWGQGTLVTVSS this time
**Result** 3.18

**Query** Same question, hzF2-m10 (VHH, Framework 2 is KEREG; also called humanized single variable domain antibody hzF2-m10) VHH: EVQLVESGGGLVQPGGSLRLSCAASRDSDDGASCMGWFRQAPGKEREGVAIIFNAGERTDYGDSVKGRFTISRDNAKNTLYLQMNSLRAEDTAVYYCATVYCGSWVARSWGQGTLVTVSS this time
**Result** 4.31

**Query** Same question, hzF2-m4 (VHH, The parent hzF2 is a VHH-human IgG1 Fc fusion; also called humanized single variable domain antibody hzF2-m4) VHH: EVQLVESGGGLVQPGGSLRLSCAASRDSNDGASCMGWFRQAPGKGLEGVAIIFNAGERTDYGDSVKGRFTISRDNAKNTLYLQMNSLRAEDTAVYYCATVWCGSWVARSWGQGTLVTVSS this time
**Result** 9.36

**Query** Same question, hzF2-m9 (VHH, also called humanized single variable domain antibody hzF2-m9) VHH: EVQLVESGGGLVQPGGSLRLSCAASRDSDEGASCMGWFRQAPGKEREGVAIIFNAGERTDYGDSVKGRFTISRDNAKNTLYLQMNSLRAEDTAVYYCATVWCGSWVARSWGQGTLVTVSS this time
**Result** 1.34
